Source listed as patent US5869492A.

target: noradrenaline reuptake sites (Rattus norvegicus, UniProt Q63380); construct: Frontal cortical tissue from the brains of male Sprague-Dawley rats; assay: [3H]noradrenaline uptake into rat frontal cortical synaptosomes; conditions: [3H]noradrenaline 10 nM, mean of three determinations unless marked (** one), read-out: NA uptake Ki
Sequence (Q63380 1-617): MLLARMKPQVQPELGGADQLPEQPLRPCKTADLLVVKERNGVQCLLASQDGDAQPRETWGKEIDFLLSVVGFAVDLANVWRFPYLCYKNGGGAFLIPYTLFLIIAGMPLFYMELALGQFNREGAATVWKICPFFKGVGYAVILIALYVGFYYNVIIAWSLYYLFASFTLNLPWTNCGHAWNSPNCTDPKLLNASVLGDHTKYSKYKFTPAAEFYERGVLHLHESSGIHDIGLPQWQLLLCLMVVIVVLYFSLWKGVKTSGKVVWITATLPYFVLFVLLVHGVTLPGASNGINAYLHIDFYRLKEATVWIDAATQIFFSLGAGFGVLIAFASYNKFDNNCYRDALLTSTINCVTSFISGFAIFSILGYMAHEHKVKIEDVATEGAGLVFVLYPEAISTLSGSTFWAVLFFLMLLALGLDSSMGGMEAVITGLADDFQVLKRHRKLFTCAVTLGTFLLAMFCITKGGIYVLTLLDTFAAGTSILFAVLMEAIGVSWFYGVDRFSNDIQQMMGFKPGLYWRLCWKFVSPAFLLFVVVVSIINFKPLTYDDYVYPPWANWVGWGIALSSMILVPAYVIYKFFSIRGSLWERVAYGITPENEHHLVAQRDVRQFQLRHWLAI
Structures can show the parent of a compound that is named as a salt.
# Ki values compiled below

# COMPOUND, Ki, nM
records = [
    ("COc1ccc2scc(C3=CSC4=NCCN34)c2c1 [Example 6, monohydrobromide]", 51),
    ("C1=C(c2csc3ccccc23)N2CCCN=C2S1", 40),
    ("Clc1ccc2scc(C3=CSC4=NCCN34)c2c1 [Example 5, monohydrobromide]", 13),
    ("C1=C(c2coc3ccccc23)N2CCCN=C2S1", 116),
    ("C1=C(c2coc3ccccc23)N2CCN=C2S1 [Example 3, monohydrobromide monohydrate]", 41),
    ("Fc1ccc2scc(C3=CSC4=NCCN34)c2c1 [Example 7, monohydrobromide]", 5.4),
    ("C1=C(c2csc3ccccc23)N2CCN=C2S1 [Example 1, monohydrobromide dihydrate]", 2.8),
]

----------
Recorded Ki for the following compounds
molecular target: 5-hydroxytryptamine (5-HT) reuptake sites (Rattus norvegicus); construct: Frontal cortical tissue from the brains of male Sprague-Dawley rats; from tissue; host or cells: crude frontal cortical synaptosomes of male Sprague-Dawley rats (Charles River); test: [3H]5-HT uptake into rat frontal cortical synaptosomes; format: biochemical
Sequence (P31652 whole entry): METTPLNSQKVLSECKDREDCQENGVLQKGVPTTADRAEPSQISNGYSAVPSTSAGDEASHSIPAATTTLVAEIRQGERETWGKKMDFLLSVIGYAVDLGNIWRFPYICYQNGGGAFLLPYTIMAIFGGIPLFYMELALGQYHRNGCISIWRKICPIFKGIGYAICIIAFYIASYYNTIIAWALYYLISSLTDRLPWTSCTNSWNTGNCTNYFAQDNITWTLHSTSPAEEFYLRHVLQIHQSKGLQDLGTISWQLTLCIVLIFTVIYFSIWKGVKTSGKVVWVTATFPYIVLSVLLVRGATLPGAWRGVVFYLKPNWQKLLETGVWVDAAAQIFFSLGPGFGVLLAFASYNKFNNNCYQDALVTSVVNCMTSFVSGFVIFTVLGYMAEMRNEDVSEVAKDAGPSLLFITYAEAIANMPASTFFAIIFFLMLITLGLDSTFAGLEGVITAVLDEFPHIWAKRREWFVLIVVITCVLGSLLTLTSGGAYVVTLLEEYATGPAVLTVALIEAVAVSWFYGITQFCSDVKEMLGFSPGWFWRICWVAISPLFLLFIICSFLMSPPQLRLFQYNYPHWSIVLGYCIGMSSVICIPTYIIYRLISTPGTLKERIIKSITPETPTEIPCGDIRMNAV
Structures can show the parent of a compound that is named as a salt.

# COMPOUND, Ki, nM
data = [
    ("C1=C(c2csc3ccccc23)N2CCN=C2S1 [Example 1, monohydrobromide dihydrate]", 12.7),
    ("COc1ccc2scc(C3=CSC4=NCCN34)c2c1 [Example 6, monohydrobromide]", 22),
    ("N#Cc1ccc2scc(C3=CSC4=NCCN34)c2c1 [Example 8, monohydrobromide]", 530),
    ("Clc1ccc2scc(C3=CSC4=NCCN34)c2c1 [Example 5, monohydrobromide]", 8.7),
    ("Fc1ccc2scc(C3=CSC4=NCCN34)c2c1 [Example 7, monohydrobromide]", 36),
    ("C1=C(c2coc3ccccc23)N2CCN=C2S1 [Example 3, monohydrobromide monohydrate]", 84),
]
